// data source = patent US20130338142A1

assay: Kinetic solubility study; details: aqueous media, 37 °C, pH 2, aqueous buffer, kinetic from dmso stock
Some molecules, each annotated with its measured solubility at 24 h.
Write the answer as a number in µM, unit excluded.

Here's what some known entries look like.
- molecule: "COc1cc(Nc2nc(-c3ccc4c(c3)NCCO4)cn3ccnc23)ccc1N1CCN(C2COC2)CC1 [Compound 4]"
  solubility at 24 h [µM]: 94
- molecule: "COc1cc(Nc2nc(-c3ccc4c(c3)NCCO4)cn3ccnc23)ccc1N1CCOCC1 [Compound 14x, reference compound]"
  solubility at 24 h [µM]: 87
- molecule: "COc1cc(Nc2nc(-c3cnc4c(c3)NCCO4)cn3ccnc23)ccc1N1CCOCC1 [Compound 1]"
  solubility at 24 h [µM]: 98
- molecule: "c1cn2cc(-c3ccc4c(c3)NCCO4)nc(Nc3ccc(N4CCN(C5COC5)CC4)cc3)c2n1 [Compound 24]"
  solubility at 24 h [µM]: 100
- molecule: "c1cn2cc(-c3cnc4c(c3)NCCO4)nc(Nc3ccc(N4CCOCC4)cc3)c2n1 [Compound 28x, reference compound]"
  solubility at 24 h [µM]: 90

Kindly review the next molecule as well.
Given the molecule COc1cc(Nc2nc(-c3ccc4c(c3)CNCCO4)cn3ccnc23)ccc1N1CCOCC1 [Compound 3] , write its reported solubility at 24 h.
100

###

Quick record of IC50 values for Syk (Homo sapiens, UniProt P43405).
Write the answer as a number in nM, unit excluded.

Here's what some known entries look like.
- compoundSmiles: "c1cn2cc(-c3ccc4c(c3)NCCO4)nc(Nc3ccc(N4CCN(C5COC5)CC4)cc3)c2n1"
  measurementTarget: "Syk (Homo sapiens, UniProt P43405)"
  property: "IC50"
  measured: 11
- compoundSmiles: "c1cn2cc(-c3cnc4c(c3)NCCO4)nc(Nc3cnn(C4CCOCC4)c3)c2n1"
  measurementTarget: "Syk (Homo sapiens, UniProt P43405)"
  property: "IC50"
  measured: 5
- compoundSmiles: "COc1cc(Nc2nc(-c3cnc4c(c3)NCCO4)cn3ccnc23)ccc1N1CCC[C@](C)(O)C1"
  measurementTarget: "Syk (Homo sapiens, UniProt P43405)"
  property: "IC50"
  measured: 7
- compoundSmiles: "COc1cc(Nc2nc(-c3cnc4c(c3)NCCO4)cn3ccnc23)ccc1OC1COC1"
  measurementTarget: "Syk (Homo sapiens, UniProt P43405)"
  property: "IC50"
  measured: 2
- compoundSmiles: "COc1cc(Nc2nc(-c3cnc4c(c3)NCCO4)cn3ccnc23)ccc1N1CCN(C(=O)[C@H](C)O)CC1"
  measurementTarget: "Syk (Homo sapiens, UniProt P43405)"
  property: "IC50"
  measured: 3

Given the molecule COc1cc(Nc2nc(-c3cnc4c(c3)NCCO4)cn3ccnc23)ccc1OC1CCC1 , write its reported IC50.
7

Given the molecule COc1cc(Nc2nc(-c3ccc4c(c3)OCCN4)cn3ccnc23)ccc1N1CCN(C2COC2)CC1 , write its reported IC50.
7

Given the molecule COc1cc(Nc2nc(-c3ccc4c(c3)CNCCO4)cn3ccnc23)ccc1N1CCOCC1 , write its reported IC50.
7

###

target: Syk (Homo sapiens, UniProt P43405)
Some compounds, each annotated with its measured pIC50.
Lab note — pIC50 values are minus log10 of concentrations in M.

- compoundSmiles: "CN(C)C[C@@H]1CN(c2ccc(Nc3nc(-c4cnc5c(c4)NCCO5)cn4ccnc34)cc2)CCO1"
  measured: 8.05
- compoundSmiles: "CC(C)c1ncc(Nc2nc(-c3cnc4c(c3)NCCO4)cn3ccnc23)s1"
  measured: 8.40
- compoundSmiles: "COc1cc(Nc2nc(-c3cnc4c(c3)NCCO4)cn3ccnc23)ccc1-n1ccnc1"
  measured: 7.68

Print Syk (Homo sapiens, UniProt P43405) pIC50 for COc1cc(Nc2nc(-c3cnc4c(c3)NCCO4)cn3ccnc23)ccc1N1CCC(=NO)CC1 .
8.30
